Experiment: Open-label clinical pharmacokinetic study of oral XBD173 and etifoxine in healthy volunteers (plasma LC-MSMS)
Type: in vivo, human
Settings: human, plasma, po, 50 mg, 50mg etifoxine single oral dose; 180 mins; participant 2
endpointLabel: concentration at 180 min (ng/mL)
One number for each entry, in ng/mL.

Please give measured concentration at 180 min of the following entry: CCNC1=Nc2ccc(Cl)cc2C(C)(c2ccccc2)O1 (stereo not shown) [etifoxine]
12.3

###

Assay: Open-label clinical pharmacokinetic study of oral XBD173 and etifoxine in healthy volunteers (plasma LC-MSMS)
Format: in vivo, human
Conditions: human, plasma, po, 50 mg, 50mg etifoxine single oral dose; 240 mins; Mean (SEM)
endpointLabel: concentration at 240 min (ng/mL)
Numbers only, in ng/mL.

Please give measured concentration at 240 min of the following entry: CCNC1=Nc2ccc(Cl)cc2C(C)(c2ccccc2)O1 (stereo not shown) [etifoxine]
18
